- Assay info: Pancreas pharmacokinetics in mice after single intragastric dose
- Assay type: in vivo
- Assay context: female, ICR-SCID, mouse, pancreas, po, 250 mg/kg
Parameter: Cmax
The reply should consist of the numeric value with the unit placed after it.

Task: Cmax lookup needed for COc1cc(/C=C/C(=O)CC(=O)/C=C/c2ccc(O)c(OC)c2)ccc1O [Curcumin, diferuloylmethane, reference compound] , thanks.
Result: 2150 ng/g

====

- Assay info: DPPH radical scavenging assay
- Type: biochemical
- Assay context: read-out: IC50, DPPH radical scavenging; data not shown
Answer each item with its documented pIC50.
Schema: pIC50 number; meaning minus log10 of the concentration expressed in molar units.

Task: pIC50 lookup needed for COc1cc(/C=C/C(=O)C(=Cc2ccc(F)c(F)c2)C(=O)/C=C/c2ccc(O)c(OC)c2)ccc1O , thanks.
Result: 7.30

Task: pIC50 lookup needed for COc1cc(/C=C/C(=O)CC(=O)/C=C/c2ccc(O)c(OC)c2)ccc1O [Curcumin, diferuloylmethane, reference compound] , thanks.
Result: 4.46
